assay: in vivo; details: non-human primates, iv, 20 mg/kg, T1/2 beta, Selected Parameter Value
reported endpoint: half-life

compound: COc1cc(NCc2ccc3nc(N)nc(N)c3c2C)cc(OC)c1OC [Trimetrexate]
reported endpoint: half-life
observed value: 1.43 h

###

assay: in vivo; conditions: non-human primates, iv, 20 mg/kg, T1/2 beta, Converted value

compound: COc1cc(NCc2ccc3nc(N)nc(N)c3c2C)cc(OC)c1OC [Trimetrexate]
unit annotation: min
half-life: 85.9

###

test: in vivo; details: non-human primates, iv, 20 mg/kg, T1/2 alpha, Selected Parameter Value
reported endpoint: half-life

compound: COc1cc(NCc2ccc3nc(N)nc(N)c3c2C)cc(OC)c1OC [Trimetrexate]
observed value: 18.3 min

###

assay: clinical; conditions: human, in vivo, po, 500 mg
reported endpoint: AUC (ng·h/mL)

compound structure: CC[C@H]1OC(=O)[C@H](C)[C@@H](O[C@H]2C[C@@](C)(OC)[C@@H](O)[C@H](C)O2)[C@H](C)[C@@H](O[C@@H]2O[C@H](C)C[C@H](N(C)C)[C@H]2O)[C@](C)(O)C[C@@H](C)CN(C)[C@H](C)[C@@H](O)[C@]1(C)O
unit annotation: ng·h/mL
observed value: 6380

###

assay: in vivo; conditions: non-human primates, iv, 20 mg/kg, T1/2 alpha, Converted value
reported endpoint: half-life (min)

compound: COc1cc(NCc2ccc3nc(N)nc(N)c3c2C)cc(OC)c1OC [Trimetrexate]
observed value: 18.3

###

assay: clinical; details: human, in vivo, po, 500 mg

compound structure: CC[C@H]1OC(=O)[C@H](C)[C@@H](O[C@H]2C[C@@](C)(OC)[C@@H](O)[C@H](C)O2)[C@H](C)[C@@H](O[C@@H]2O[C@H](C)C[C@H](N(C)C)[C@H]2O)[C@](C)(O)C[C@@H](C)CN(C)[C@H](C)[C@@H](O)[C@]1(C)O
half-life / h: 76.2

###

test: clinical; conditions: human, in vivo, iv

compound: OC(CCN1CCCCC1)(c1ccccc1)C1CC2C=CC1C2 (stereo not shown)
clearance: 24.8 mL/min/kg

###

assay: clinical; conditions: human, in vivo, iv, T1/2 beta, Selected Parameter Value
reported endpoint: half-life (h)

compound: OC(CCN1CCCCC1)(c1ccccc1)C1CC2C=CC1C2 (stereo not shown)
observed value: 28.2

###

experiment: clinical; conditions: human, in vivo, iv, T1/2 Alpha, Selected Parameter Value

molecule: OC(CCN1CCCCC1)(c1ccccc1)C1CC2C=CC1C2 (stereo not shown)
half-life [h]: 1.7
